# target-system: recombinant EZH2-641F complex (EZH2 Y641F/EED/SUZ12/RbAp48/AEBP2) (Homo sapiens (Human), UniProt Q15910, Y641F)
# Sequence (Q15910 whole entry Y641F): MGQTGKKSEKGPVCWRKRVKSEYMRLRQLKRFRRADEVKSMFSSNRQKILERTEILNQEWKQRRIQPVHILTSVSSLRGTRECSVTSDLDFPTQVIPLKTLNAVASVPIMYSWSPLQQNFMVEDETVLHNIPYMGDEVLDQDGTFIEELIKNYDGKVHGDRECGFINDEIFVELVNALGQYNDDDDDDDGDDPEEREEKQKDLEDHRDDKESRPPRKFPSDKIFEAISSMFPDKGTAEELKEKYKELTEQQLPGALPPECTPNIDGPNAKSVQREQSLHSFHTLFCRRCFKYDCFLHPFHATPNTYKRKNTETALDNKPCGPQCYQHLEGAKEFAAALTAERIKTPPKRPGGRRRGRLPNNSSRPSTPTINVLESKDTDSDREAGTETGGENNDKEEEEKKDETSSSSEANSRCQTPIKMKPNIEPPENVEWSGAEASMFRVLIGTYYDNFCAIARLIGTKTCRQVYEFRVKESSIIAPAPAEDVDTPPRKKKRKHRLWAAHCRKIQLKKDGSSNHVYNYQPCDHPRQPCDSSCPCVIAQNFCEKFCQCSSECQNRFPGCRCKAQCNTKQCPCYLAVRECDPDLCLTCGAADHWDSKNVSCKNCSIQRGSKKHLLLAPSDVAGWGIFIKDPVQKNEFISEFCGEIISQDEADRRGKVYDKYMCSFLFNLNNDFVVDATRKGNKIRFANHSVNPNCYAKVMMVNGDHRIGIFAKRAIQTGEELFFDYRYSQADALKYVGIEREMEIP
# Sequence (O75530 whole entry partner): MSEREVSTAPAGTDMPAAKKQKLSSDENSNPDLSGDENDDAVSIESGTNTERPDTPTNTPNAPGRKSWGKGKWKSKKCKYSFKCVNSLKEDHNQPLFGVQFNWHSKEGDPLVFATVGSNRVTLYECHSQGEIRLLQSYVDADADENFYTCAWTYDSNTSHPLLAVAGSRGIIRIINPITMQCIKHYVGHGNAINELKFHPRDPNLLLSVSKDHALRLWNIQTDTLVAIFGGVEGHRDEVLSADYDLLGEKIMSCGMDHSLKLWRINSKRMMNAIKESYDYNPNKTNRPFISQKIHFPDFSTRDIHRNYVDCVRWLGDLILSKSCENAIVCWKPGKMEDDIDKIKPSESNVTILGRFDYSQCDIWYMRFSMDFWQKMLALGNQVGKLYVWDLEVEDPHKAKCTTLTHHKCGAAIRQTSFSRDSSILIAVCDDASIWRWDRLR
# Sequence (Q15022 whole entry partner): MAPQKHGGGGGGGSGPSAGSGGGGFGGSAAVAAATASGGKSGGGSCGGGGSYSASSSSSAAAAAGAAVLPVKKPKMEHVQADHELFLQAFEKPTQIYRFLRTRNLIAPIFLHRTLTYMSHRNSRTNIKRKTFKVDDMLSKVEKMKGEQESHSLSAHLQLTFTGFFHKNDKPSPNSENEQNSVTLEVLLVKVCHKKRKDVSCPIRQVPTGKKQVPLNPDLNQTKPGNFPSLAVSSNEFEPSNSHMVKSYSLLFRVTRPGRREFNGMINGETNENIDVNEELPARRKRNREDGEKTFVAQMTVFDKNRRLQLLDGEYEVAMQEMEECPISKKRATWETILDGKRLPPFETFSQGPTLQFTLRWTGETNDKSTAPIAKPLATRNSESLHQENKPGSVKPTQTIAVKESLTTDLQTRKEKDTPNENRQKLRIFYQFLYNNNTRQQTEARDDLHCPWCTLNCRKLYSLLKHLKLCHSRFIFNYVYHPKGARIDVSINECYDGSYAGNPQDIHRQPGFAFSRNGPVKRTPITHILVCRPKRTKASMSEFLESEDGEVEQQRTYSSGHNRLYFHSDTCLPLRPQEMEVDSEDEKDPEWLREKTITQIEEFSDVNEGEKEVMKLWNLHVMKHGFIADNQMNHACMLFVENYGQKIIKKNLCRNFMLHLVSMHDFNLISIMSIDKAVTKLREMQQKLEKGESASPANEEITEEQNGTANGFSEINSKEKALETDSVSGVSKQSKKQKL
# Sequence (Q09028 whole entry partner): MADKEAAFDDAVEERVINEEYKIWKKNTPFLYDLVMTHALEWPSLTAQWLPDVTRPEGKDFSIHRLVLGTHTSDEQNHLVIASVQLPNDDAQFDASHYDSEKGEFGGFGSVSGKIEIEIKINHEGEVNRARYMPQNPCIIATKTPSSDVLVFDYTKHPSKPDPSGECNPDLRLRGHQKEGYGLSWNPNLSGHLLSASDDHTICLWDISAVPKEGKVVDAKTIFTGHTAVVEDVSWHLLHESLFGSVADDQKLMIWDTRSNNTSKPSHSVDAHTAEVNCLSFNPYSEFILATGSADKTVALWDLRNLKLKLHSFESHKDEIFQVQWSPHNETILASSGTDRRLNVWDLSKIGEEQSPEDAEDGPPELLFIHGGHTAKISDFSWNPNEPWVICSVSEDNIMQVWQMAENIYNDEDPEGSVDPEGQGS
# Sequence (Q6ZN18 whole entry partner): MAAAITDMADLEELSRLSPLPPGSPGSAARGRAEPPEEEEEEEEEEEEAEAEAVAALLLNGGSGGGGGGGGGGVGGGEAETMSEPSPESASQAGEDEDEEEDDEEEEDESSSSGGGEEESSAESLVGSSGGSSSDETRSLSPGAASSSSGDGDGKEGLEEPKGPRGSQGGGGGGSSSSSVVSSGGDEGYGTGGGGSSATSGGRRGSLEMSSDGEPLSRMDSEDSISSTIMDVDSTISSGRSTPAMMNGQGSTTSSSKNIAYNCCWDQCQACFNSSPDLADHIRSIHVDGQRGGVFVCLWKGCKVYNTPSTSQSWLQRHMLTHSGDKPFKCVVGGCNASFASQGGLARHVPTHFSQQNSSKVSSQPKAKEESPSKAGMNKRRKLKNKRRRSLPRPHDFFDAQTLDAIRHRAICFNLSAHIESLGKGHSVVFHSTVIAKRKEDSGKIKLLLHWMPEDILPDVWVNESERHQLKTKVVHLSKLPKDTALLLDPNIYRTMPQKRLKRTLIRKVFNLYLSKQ
# experiment-summary: EZH2 Histone Methyl Transferase Assay (scintillation proximity assay)
# assay-context: 350 nM histone peptide substrate, 500 nM 3H-SAM, 3 hours room temperature
# Method: EZH2 Histone Methyl Transferase Assay The effectiveness of compounds of the present invention as inhibitors of histone methyl transferases can be readily tested by assays known to those skilled in the art. […] Incorporation of radioactive methyl group into the histone peptide substrate was determined in Leadseeker (GE Healthcare) by means of scintillation proximity assay. […] Compounds were dissolved at 10 mM in dimethylsulfoxide (DMSO) and evaluated at eleven concentrations. […]
Reported IC50 values follow for various compounds

Which measured IC50 value corresponds to CCCc1cc(C)[nH]c(=O)c1CNC(=O)c1cc2c(c(-c3ccc(N4CCN(C(C)C)CC4)nc3)c1)OC(C)(C(C)C)C2 (stereo not drawn) ?
< 500 nM

Queued: C=CC1COc2cc(C(=O)NCc3c(C)cc(C)[nH]c3=O)cc(Br)c2O1 (stereo not drawn)
> 1000 nM

Queued: Cc1cc(C)c(CNC(=O)c2cc3c(c(-c4ccc(CN5CCOCC5)cc4)c2)OC(C)(C)C3)c(=O)[nH]1
> 1000 nM

Queued: Cc1cc(C)c(CNC(=O)c2cc3c(c(-c4ccc(N5CCOCC5)nc4)c2)OC(C)C3)c(=O)[nH]1 (stereo not drawn)
> 1000 nM

Queued: C=CC1(C)Cc2cc(C(=O)NCc3c(C)cc(C)[nH]c3=O)cc(-c3ccc(CN4CCOCC4)cc3)c2O1 (stereo not drawn)
> 1000 nM

Queued: CC1=CCOc2c(Br)cc(C(=O)NCc3c(C)cc(C)[nH]c3=O)cc2C1
> 1000 nM

Queued: Cc1cc(C)c(CNC(=O)c2cc3c(c(-c4ccc(N5CCNCC5)cc4)c2)OC(C)(C)C3)c(=O)[nH]1
< 500 nM

Queued: C=CC1(C)Cc2cc(C(=O)NCc3c(C)cc(C)[nH]c3=O)cc(-c3ccc(N4CCNCC4)nc3)c2O1 (stereo not drawn)
< 500 nM

Queued: Cc1cc(C)c(CNC(=O)c2cc(Br)c3c(c2)CC2(CCCC2)O3)c(=O)[nH]1
> 1000 nM

Queued: Cc1cc(C)c(CNC(=O)c2cc(-c3ccc(N4CCNCC4)nc3)c3c(c2)C2(CCCC2)CO3)c(=O)[nH]1
> 1000 nM

Queued: CCCc1cc(C)[nH]c(=O)c1CNC(=O)c1cc(Cl)c2c(c1)CC(C)(C)O2
> 1000 nM

Queued: Cc1cc(C)c(CNC(=O)c2cc3c(c(-c4ccc(N5CCNCC5)nc4)c2)OCC3)c(=O)[nH]1
> 1000 nM

====

Reported pIC50 values follow for various compounds
# target-system: recombinant EZH2-641F complex (EZH2 Y641F/EED/SUZ12/RbAp48/AEBP2) (Homo sapiens (Human), UniProt Q15910, Y641F)
# experiment-summary: EZH2 Histone Methyl Transferase Assay (scintillation proximity assay)
# assay-context: 350 nM histone peptide substrate, 500 nM 3H-SAM, 3 hours room temperature
# Description: EZH2 Histone Methyl Transferase Assay The effectiveness of compounds of the present invention as inhibitors of histone methyl transferases can be readily tested by assays known to those skilled in the art. […] Incorporation of radioactive methyl group into the histone peptide substrate was determined in Leadseeker (GE Healthcare) by means of scintillation proximity assay. […] Compounds were dissolved at 10 mM in dimethylsulfoxide (DMSO) and evaluated at eleven concentrations. […]
pIC50: −log10 of the molar value.

Cc1cc(C)c(CNC(=O)c2cc(/C=C/c3ccccc3)c3c(c2)CC(C)(C)O3)c(=O)[nH]1 = < 6.00

Consider the additional compound presented here.
Which measured pIC50 value corresponds to Cc1cc(C)c(CNC(=O)c2ccc3c(c2C)CC(C)(C)O3)c(=O)[nH]1 ?
< 6.00

====

# target-system: recombinant EZH2-641F complex (EZH2 Y641F/EED/SUZ12/RbAp48/AEBP2) (Homo sapiens (Human), UniProt Q15910, Y641F)
# experiment-summary: EZH2 Histone Methyl Transferase Assay (scintillation proximity assay)
# assay-context: 350 nM histone peptide substrate, 500 nM 3H-SAM, 3 hours room temperature
# Procedure: EZH2 Histone Methyl Transferase Assay The effectiveness of compounds of the present invention as inhibitors of histone methyl transferases can be readily tested by assays known to those skilled in the art. […] Incorporation of radioactive methyl group into the histone peptide substrate was determined in Leadseeker (GE Healthcare) by means of scintillation proximity assay. […] Compounds were dissolved at 10 mM in dimethylsulfoxide (DMSO) and evaluated at eleven concentrations. […]
observation-type: IC50

Some solved entries appear below for comparison.
C=C(C)C1(C)Cc2cc(C(=O)NCc3c(C)cc(C)[nH]c3=O)cc(Br)c2O1 (stereo not drawn) = > 1000 nM
COc1ccc(-c2cc(C(=O)NCc3c(C)cc(C)[nH]c3=O)cc3c2OC(C)(C)CC3)cn1 = > 1000 nM

Consider the additional molecule presented here.
Which measured IC50 value corresponds to Cc1cc(C)c(CNC(=O)c2cc3c(c(-c4ccc(C(=O)N5CCN(C)CC5)cc4)c2)OC(C)(C)C3)c(=O)[nH]1 ?
> 1000 nM

====

Reported pIC50 values follow for various molecules
# target-system: recombinant EZH2-641F complex (EZH2 Y641F/EED/SUZ12/RbAp48/AEBP2) (Homo sapiens (Human), UniProt Q15910, Y641F)
# experiment-summary: EZH2 Histone Methyl Transferase Assay (scintillation proximity assay)
# assay-context: 350 nM histone peptide substrate, 500 nM 3H-SAM, 3 hours room temperature
pIC50: −log10 of the molar value.

Which measured pIC50 value corresponds to Cc1cc(C)c(CNC(=O)c2cc(F)c3c(c2)CC(C)(C)O3)c(=O)[nH]1 ?
< 6.00

Queued: COc1ccc(-c2cc(C(=O)NCc3c(C)cc(C)[nH]c3=O)cc3c2OCC(C)CC3)cn1 (centres unmarked)
< 6.00

Queued: Cc1cc(C)c(CNC(=O)c2cc3c(c(-c4ccc(CN5CCCCC5)cc4)c2)OC2(CCCC2)C3)c(=O)[nH]1
< 6.00

Queued: Cc1cc(C)c(CNC(=O)c2cc(Br)c3c(c2)[C@@H](C)[C@H](C)O3)c(=O)[nH]1 (racemic)
< 6.00

Queued: Cc1cc(C)c(CNC(=O)c2cc(Br)c3c(c2)CCC(C)CO3)c(=O)[nH]1 (centres unmarked)
< 6.00

Queued: Cc1cc(C)c(CNC(=O)c2cc3c(c(-c4ccc(CN5CCOCC5)cc4)c2)OC(C)CCC3)c(=O)[nH]1 (centres unmarked)
< 6.00

Queued: COc1ccc(-c2cc(C(=O)NCc3c(C)cc(C)[nH]c3=O)cc3c2OC2(CCCC2)C3)cn1
< 6.00

Queued: Cc1cc(C)c(CNC(=O)c2cc3c(c(-c4cnc(N5CCNCC5)nc4)c2)OC(C)(C)C3)c(=O)[nH]1
> 6.30

Queued: C=CC1(C)Cc2cc(C(=O)NCc3c(C)cc(C)[nH]c3=O)cc(Br)c2O1 (centres unmarked)
< 6.00

Queued: Cc1cc(C)c(CNC(=O)c2cc3c(c(-c4ccc(N5CCNCC5)nc4)c2)OC(C)(C)C3)c(=O)[nH]1
> 6.30

====

Reported pIC50 values follow for various molecules
# target-system: recombinant EZH2-641F complex (EZH2 Y641F/EED/SUZ12/RbAp48/AEBP2) (Homo sapiens (Human), UniProt Q15910, Y641F)
# experiment-summary: EZH2 Histone Methyl Transferase Assay (scintillation proximity assay)
# assay-context: 350 nM histone peptide substrate, 500 nM 3H-SAM, 3 hours room temperature
pIC50: −log10 of the molar value.

Some solved entries appear below for comparison.
Cc1cc(C)c(CNC(=O)c2cc(-c3ccc(N4CCNCC4)nc3)c3c(c2)C(C)CO3)c(=O)[nH]1 (stereo not shown) [Example 29] = < 6.00
Cc1cc(C)c(CNC(=O)c2cc(Br)c3c(c2C)CC(C)(C)O3)c(=O)[nH]1 [Example 7] = 6.00 to 6.30
COc1ccc(-c2cc(C(=O)NCc3c(C)cc(C)[nH]c3=O)cc3c2OCC32CCCC2)cn1 [Example 76] = < 6.00
Cc1cc(C)c(CNC(=O)c2cc3c(c(-c4ccc(N5CCOCC5)nc4)c2)OCC3)c(=O)[nH]1 [Example 37] = < 6.00
CCC1(C)Cc2cc(C(=O)NCc3c(C)cc(C)[nH]c3=O)cc(-c3ccc(N4CCNCC4)nc3)c2O1 (stereo not shown) [Example 62] = > 6.30

Which measured pIC50 value corresponds to Cc1cc(C)c(CNC(=O)c2cc(Br)c3c(c2)CC(C)O3)c(=O)[nH]1 (stereo not shown) [Example 31] ?
< 6.00

Queued: Cc1cc(C)c(CNC(=O)c2cc(-c3ccc(CN4CCCCC4)cc3)c3c(c2)[C@@H]2CCC[C@]2(C)O3)c(=O)[nH]1 (racemic) [Example 67]
6.00 to 6.30

Queued: COc1ccc(-c2cc(C(=O)NCc3c(C)cc(C)[nH]c3=O)cc3c2OC(C)(C)C3)cn1 [Example 14]
6.00 to 6.30

Queued: Cc1cc(C)c(CNC(=O)c2ccc3c(c2)C=CCC(C)O3)c(=O)[nH]1 (stereo not shown) [Example 47]
< 6.00

Queued: Cc1cc(C)c(CNC(=O)c2cc3c(c(-c4ccc(N5CCNCC5)nc4)c2)OC(C)CCC3)c(=O)[nH]1 (stereo not shown) [Example 51]
< 6.00
